The reported numbers originate from patent US9481687B2.

This listing pairs compounds with measured pIC50.
System: THP-1 cells
Assay Summary: LPS-induced cytokine production assay, TNFα
Type: cell-based
Applied Conditions: Homo sapiens, 300 ng/mL LPS, 5 hours, read-out: TNF (5 h)
pIC50: −log10 of the molar value.

Request: Give its pIC50 value. Item: `CN[C@H]1CC[C@H](Nc2ncnc3sc4ccccc4c23)CC1`
Result: ≤ 6.00

* * *

Target Under Test: IRAK4 (Homo sapiens, UniProt Q9NWZ3)
Construct: purchased CARNA Bioscience 09-145
Sequence (Q9NWZ3 1-460): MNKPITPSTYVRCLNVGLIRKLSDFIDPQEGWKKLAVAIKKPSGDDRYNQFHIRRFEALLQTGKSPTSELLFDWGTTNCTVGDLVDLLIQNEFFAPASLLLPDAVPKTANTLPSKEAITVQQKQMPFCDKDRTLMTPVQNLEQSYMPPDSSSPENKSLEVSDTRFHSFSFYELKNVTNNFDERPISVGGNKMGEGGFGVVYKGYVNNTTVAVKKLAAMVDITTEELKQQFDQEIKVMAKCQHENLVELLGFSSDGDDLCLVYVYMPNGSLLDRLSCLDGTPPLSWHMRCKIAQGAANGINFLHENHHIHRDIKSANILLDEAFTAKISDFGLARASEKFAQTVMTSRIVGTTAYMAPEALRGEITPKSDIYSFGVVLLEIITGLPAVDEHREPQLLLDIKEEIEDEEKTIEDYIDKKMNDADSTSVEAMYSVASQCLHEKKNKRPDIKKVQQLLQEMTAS
Assay Summary: IRAK-4 activity inhibition assay (Caliper)
Format: biochemical
Applied Conditions: 3.5 nM IRAK4, 37 μM ATP, 1.5 μM Peptide 8
pIC50: −log10 of the molar value. Structures can show the parent of a compound that is named as a salt.
This listing pairs compounds with measured pIC50.

Request: Give its pIC50 value. Item: CN[C@H]1CC[C@H](Nc2ncnc3sc4ccccc4c23)CC1 [I-9]
Result: 6.00 to 7.00

Request: Give its pIC50 value. Item: OCCc1ccc2sc3ncnc(N[C@H]4CC[C@H](N5CCOCC5)CC4)c3c2c1 [I-15]
Result: 6.00 to 7.00

Request: Give its pIC50 value. Item: CN(C)[C@H]1CC[C@H](Oc2ncnc3sc4ccccc4c23)CC1 [I-12]
Result: 6.00 to 7.00

Request: Give its pIC50 value. Item: CN(C)C(=O)c1ccc2sc3ncnc(N[C@H]4CC[C@H](N5CCOCC5)CC4)c3c2c1 [I-20]
Result: 5.00 to 6.00

Request: Give its pIC50 value. Item: CCOC(=O)c1ccc2sc3ncnc(N[C@H]4CC[C@H](N(C)C)CC4)c3c2c1 [I-5]
Result: ≥ 7.00

Request: Give its pIC50 value. Item: CCOC(=O)c1ccc2sc3ncnc(N[C@H]4CC[C@H](N5CCOCC5)CC4)c3c2c1 [I-8]
Result: 6.00 to 7.00

---
Request: Give its pIC50 value. Item: CN(C)[C@H]1CC[C@H](Nc2ncnc3sc4ccc(C(N)=O)cc4c23)CC1 [I-6]
Result: ≥ 7.00

Request: Give its pIC50 value. Item: CN(C)[C@H]1CC[C@H](Nc2ncnc3sc4ccccc4c23)CC1 [I-2]
Result: ≥ 7.00

Request: Give its pIC50 value. Item: OCCc1ccc2sc3ncnc(O[C@H]4CC[C@H](N5CCOCC5)CC4)c3c2c1 [I-13]
Result: 6.00 to 7.00

Request: Give its pIC50 value. Item: CN(C)[C@H]1CC[C@H](Nc2ncnc3sc4ccc(CO)cc4c23)CC1 [I-7]
Result: 6.00 to 7.00

Request: Give its pIC50 value. Item: N[C@H]1CC[C@H](Nc2ncnc3sc4ccccc4c23)CC1 [I-11, hydrochloride]
Result: 6.00 to 7.00

Request: Give its pIC50 value. Item: CCOC(=O)c1cccc2sc3ncnc(N[C@H]4CC[C@H](N(C)C)CC4)c3c12 [I-22]
Result: ≤ 5.00

Request: Give its pIC50 value. Item: OCc1ccc2sc3ncnc(N[C@H]4CC[C@H](N5CCOCC5)CC4)c3c2c1 [I-10]
Result: 6.00 to 7.00
